Data origin: patent US6399542B1

System: Chochliobolus miyabeanus
Experiment: Effect on Rice brown spot (preventive spray test)
Format: in vivo
Conditions: conc. of active ingredient 4 ppm, 7 days after inoculation
quantity measured: Preventive rate (%)
Write the figure, then the unit, nothing else.

**Query** I'd like to know its Preventive rate (%). The molecule in question is CNC(=O)C(=NOC)c1ccccc1COc1ccc2c(c1C)CC(C)C2=NOC (racemic)
**Result** 68%

**Query** Ok, now CNC(=O)/C(=N/OC)c1ccccc1COc1ccc2c(c1C)OC(C)C2=NOC (stereo not shown)
**Result** 56%

**Query** Ok, now COC=C(C(=O)OC)c1ccccc1COc1ccc2c(c1C)C(C)CC2=NOC (racemic)
**Result** 53%

**Query** Ok, now CNC(=O)C(=NOC)c1ccccc1COc1cc2c(cc1C)C(=NOC)CC2
**Result** 96%

**Query** Ok, now CNC(=O)/C(=N/OC)c1ccccc1COc1ccc2c(c1C)OCC2=NOC
**Result** 75%

**Query** Ok, now CCON=C1COc2c1ccc(OCc1ccccc1/C(=N\OC)C(=O)NC)c2C
**Result** 69%

**Query** Ok, now COC=C(C(=O)OC)c1ccccc1COc1ccc2c(c1C)OCCC2=NOC
**Result** 82%

* * *

The following molecules are shown together with reported Preventive rate (%) values.
System: Erysiphe graminis
Assay: Effects on Barley powdery mildew (preventive spray test)
Format: in vivo
Conditions: conc. of active ingredient 20 ppm, lesions counted seven days after inoculation
Write the number in % without appending the unit.

Some molecules with known Preventive rate (%) results, for comparison:
CO/N=C(\C(=O)OC)c1ccccc1COc1ccc2c(c1)CCCC2 [comparative compound (2), reference compound]; 59
CNC(=O)C(=NOC)c1ccccc1COc1cc2c(cc1C)C(=NOC)C(C)C2 (single isomer, unassigned); 100
CNC(=O)C(=NOC)c1ccccc1COc1ccc2c(c1C)OCCC2=NOCC=CCl; 100
CCc1cc2c(cc1OCc1ccccc1/C(=N\OC)C(=O)NC)OCC2=NOC (single isomer, unassigned); 99
CNC(=O)C(OC)c1ccccc1COc1ccc2c(c1)OCC2=NOC (racemic); 88

**Query** I'd like to know its Preventive rate (%). The molecule in question is CO/C=C(/C(=O)OC)c1ccccc1COc1ccc2c(c1)OCCC2=NOC
**Result** 100

**Query** Ok, now C=CCON=C1COc2c1ccc(OCc1ccccc1/C(=N\OC)C(=O)NC)c2C
**Result** 100

**Query** Ok, now CNC(=O)C(=NOC)c1ccccc1COc1ccc2c(c1)CCC2=NOCC=CCl
**Result** 100

* * *

The following compounds are shown together with reported Preventive rate (%) values.
Tested on: Erysiphe graminis
Assay: Effects on Barley powdery mildew (preventive spray test)
Format: in vivo
Settings: conc. of active ingredient 20 ppm, lesions counted seven days after inoculation
Write the number in % without appending the unit.

Some compounds with known Preventive rate (%) results, for comparison:
COC=C(C(=O)OC)c1ccccc1COc1ccc2c(c1C)OCCC2=NOC; 100
C=CCON=C1COc2c1ccc(OCc1ccccc1/C(=N\OC)C(=O)OC)c2C; 92
CON=C1CCc2cc(OCc3ccccc3C(=NOC)C(=O)OC)c(C)cc21; 100
COC=C(C(=O)OC)c1ccccc1COc1ccc2c(c1C)C(C)CC2=NOC (racemic); 100

Next, consider the following compound.
**Query** I'd like to know its Preventive rate (%). The compound in question is CCCON=C1COc2c1ccc(OCc1ccccc1/C(=N\OC)C(=O)NC)c2C
**Result** 88

* * *

The following compounds are shown together with reported Preventive rate (%) values.
Tested on: Phytophthora infestans
Type: in vivo
Conditions: Tomato late blight; conc. of active ingredient 20 ppm; 5 days after inoculation
Write the number in % without appending the unit.

**Query** Fill in the recorded Preventive rate (%) for this compound, with Phytophthora infestans as test system: CO/C=C(/C(=O)OC)c1ccccc1COc1ccc2c(c1C)OC(C)C2=NOC (single isomer, unassigned) [b-5]
**Result** 91

* * *

Tested on: Erysiphe graminis
Assay: Effects on Barley powdery mildew (preventive spray test)
Type: in vivo
Conditions: conc. of active ingredient 20 ppm, lesions counted seven days after inoculation
quantity measured: Preventive rate (%)
Write the number in % without appending the unit.

CON=C1c2ccc(OCc3ccccc3/C(=N\OC)C(=O)OC)c(C)c2OC1C (stereo not drawn) [b-6]; 89
CCCCON=C1CCOc2c1ccc(OCc1ccccc1C(=NOC)C(=O)NC)c2C [c-58]; 98
CNC(=O)C(=NOC)c1ccccc1COc1ccc2c(c1C)CCC2=NOC [e-16]; 100
CCc1c(OCc2ccccc2C(=NOC)C(=O)NC)ccc2c1OCCC2=NOC [c-30]; 100

**Query** I'd like to know its Preventive rate (%). The molecule in question is CNC(=O)C(=NOC)c1ccccc1COc1ccc2c(c1C)OCCC2=NOC [c-16]
**Result** 100

**Query** Ok, now CCON=C1COc2c1ccc(OCc1ccccc1/C(=N\OC)C(=O)OC)c2C [a-35]
**Result** 100

**Query** Ok, now C#CCON=C1CCc2c1ccc(OCc1ccccc1C(=NOC)C(=O)NC)c2C [e-61]
**Result** 98

**Query** Ok, now CCc1c(OCc2ccccc2C(=NOC)C(=O)OC)ccc2c1OCCC2=NOC [c-29]
**Result** 95

**Query** Ok, now CNC(=O)C(=NOC)c1ccccc1COc1ccc2c(c1C)OCCC2=NOCc1cccc(F)c1 [c-81]
**Result** 98

* * *

System: Phytophthora infestans
Format: in vivo
Details: Tomato late blight; conc. of active ingredient 20 ppm; 5 days after inoculation
quantity measured: Preventive rate (%)
Write the number in % without appending the unit.

Some molecules with known Preventive rate (%) results, for comparison:
CNC(=O)/C(=N/OC)c1ccccc1COc1cc2c(cc1C)C(=NOC)CO2; 95
CNC(=O)C(=NOC)c1ccccc1COc1cc2c(cc1C)C(=NOC)CCO2; 98
CO/C=C(/C(=O)OC)c1ccccc1COc1ccc2c(c1C)OC(C)C2=NOC (single isomer, unassigned) [b-4]; 97
CNC(=O)/C(=N/OC)c1ccccc1COc1ccc2c(c1C)OCC2=NOC; 97

**Query** I'd like to know its Preventive rate (%). The molecule in question is CNC(=O)/C(=N/OC)c1ccccc1COc1ccc2c(c1C)OCC2=NOCC=C(C)C
**Result** 88

**Query** Ok, now COC=C(C(=O)OC)c1ccccc1COc1ccc2c(c1C)OCC2=NOC
**Result** 100

**Query** Ok, now CON=C(C(=O)OC)c1ccccc1COc1cc2c(cc1C)C(=NOC)C(C)C2 (single isomer, unassigned) [f-9]
**Result** 93

**Query** Ok, now CO/N=C(/C(=O)OC)c1ccccc1COc1ccc2c(c1C)OCC2=NOCC#N
**Result** 81

**Query** Ok, now CON=C1COc2cc(OCc3ccccc3/C(=N\OC)C(=O)OC)c(C)cc21
**Result** 81

**Query** Ok, now CNC(=O)C(=NOC)c1ccccc1COc1ccc2c(c1C)OCCC2=NOCC=CCl
**Result** 100

* * *

System: Puccinia recondite
Assay: Penetration and translocation in wheat leaves (covered leaf tip, brown rust)
Format: in vivo
Details: conc. of active ingredient 200 ppm
The following compounds are shown together with reported Preventive rate (%) values.
Write the number in % without appending the unit.

Some compounds with known Preventive rate (%) results, for comparison:
CNC(=O)C(=NOC)c1ccccc1COc1ccc2c(c1)CCC2=NOC; 100
CNC(=O)/C(=N/OC)c1ccccc1COc1ccc2c(c1)OCC2=NOC; 100
CNC(=O)/C(=N/OC)c1ccccc1COc1ccc2c(c1C)OCC2=NOC; 100
CNC(=O)C(=NOC)c1ccccc1COc1ccc2c(c1)OCCC2=NOC; 100
CNC(=O)/C(=N/OC)c1ccccc1COc1ccc2c(c1)CCC2 [comparative compound (1), reference compound]; 23

Next, consider the following compound.
**Query** I'd like to know its Preventive rate (%). The compound in question is CNC(=O)/C(=N/OC)c1ccccc1COc1cc2c(cc1C)C(=NOC)CO2
**Result** 100

* * *

System: Psecidoperonospora cubensis
Test: Effect on Cucumber downy mildew (preventive spray test)
Assay type: in vivo
Details: conc. of active ingredient 100 ppm, 7 days after inoculation
The following molecules are shown together with reported Preventive rate (%) values.
Write the number in % without appending the unit.

Some molecules with known Preventive rate (%) results, for comparison:
CO/C=C(/C(=O)OC)c1ccccc1COc1ccc2c(c1)OCCC2=NOC [c-2]; 100
CO/N=C(/C(=O)OC)c1ccccc1COc1ccc2c(c1C)OCC2=NOCC#N [a-48]; 100
CNC(=O)C(=NOC)c1ccccc1COc1cc2c(cc1C)C(=NOC)CCO2 [c-27]; 96

**Query** I'd like to know its Preventive rate (%). The molecule in question is C#CCON=C1CCc2c1ccc(OCc1ccccc1C(=NOC)C(=O)OC)c2C [e-60]
**Result** 100

**Query** Ok, now CCON=C1COc2cc(OCc3ccccc3/C(=N\OC)C(=O)NC)ccc21 [a-37]
**Result** 100

**Query** Ok, now C=CCON=C1COc2c1ccc(OCc1ccccc1/C(=N\OC)C(=O)NC)c2C [a-60]
**Result** 100

**Query** Ok, now CNC(=O)/C(=N/OC)c1ccccc1COc1ccc2c(c1C)OCC2=NOCC#N [a-49]
**Result** 100

**Query** Ok, now C#CCON=C1COc2c1ccc(OCc1ccccc1/C(=N\OC)C(=O)OC)c2C [a-70]
**Result** 91
